Hi there, I'd appreciate the recorded Maximum Blocking for every entry that follows.
System: T1, biotinylated human IL-33 (human, UniProt O95760 112-270, biotin-labeled with EZ-LINK NHS-PEG4-Biotin)
T1 construct: also called biotin-huIL-33
T1 sequence (looked up): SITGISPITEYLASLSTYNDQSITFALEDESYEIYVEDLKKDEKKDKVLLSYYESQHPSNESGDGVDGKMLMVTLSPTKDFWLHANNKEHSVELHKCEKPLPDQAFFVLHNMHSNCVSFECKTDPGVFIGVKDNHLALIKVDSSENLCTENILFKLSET
Experimental protocol: competitive ELISA, biotin-huIL-33 to coated hST2-Fc
Report the figure in % without appending any unit label.

Return the recorded Maximum Blocking value; entry: H1M9566N (antibody, IgG1, V domains shown, also called RG2) VH: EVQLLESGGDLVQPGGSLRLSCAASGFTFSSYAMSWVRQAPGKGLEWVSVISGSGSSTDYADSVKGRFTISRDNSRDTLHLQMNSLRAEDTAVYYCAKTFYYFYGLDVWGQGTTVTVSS VL: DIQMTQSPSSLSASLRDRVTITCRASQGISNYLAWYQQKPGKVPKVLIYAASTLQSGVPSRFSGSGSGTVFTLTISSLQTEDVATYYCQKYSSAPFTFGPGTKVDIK 27

Return the recorded Maximum Blocking value; entry: H1M9568N (antibody, IgG1, V domains shown, also called RG3) VH: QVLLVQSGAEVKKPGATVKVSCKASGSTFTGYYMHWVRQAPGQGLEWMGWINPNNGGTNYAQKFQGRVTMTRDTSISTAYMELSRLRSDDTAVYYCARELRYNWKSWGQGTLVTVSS VL: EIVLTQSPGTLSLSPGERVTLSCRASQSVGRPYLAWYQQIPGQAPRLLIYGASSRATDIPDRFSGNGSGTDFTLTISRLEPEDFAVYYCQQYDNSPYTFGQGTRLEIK 85
